Please provide measured pIC50 for the entries that follow.
target: human NaV subtype, like NaV 1.7 (Homo sapiens, UniProt Q15858); test: E-VIPR optical membrane potential assay with electrical stimulation; details: active against one or more sodium channels; Table 3 does not name the assay or NaV subtype; read-out: Binned Activity Data (IC50)
Sequence (Q15858 whole entry): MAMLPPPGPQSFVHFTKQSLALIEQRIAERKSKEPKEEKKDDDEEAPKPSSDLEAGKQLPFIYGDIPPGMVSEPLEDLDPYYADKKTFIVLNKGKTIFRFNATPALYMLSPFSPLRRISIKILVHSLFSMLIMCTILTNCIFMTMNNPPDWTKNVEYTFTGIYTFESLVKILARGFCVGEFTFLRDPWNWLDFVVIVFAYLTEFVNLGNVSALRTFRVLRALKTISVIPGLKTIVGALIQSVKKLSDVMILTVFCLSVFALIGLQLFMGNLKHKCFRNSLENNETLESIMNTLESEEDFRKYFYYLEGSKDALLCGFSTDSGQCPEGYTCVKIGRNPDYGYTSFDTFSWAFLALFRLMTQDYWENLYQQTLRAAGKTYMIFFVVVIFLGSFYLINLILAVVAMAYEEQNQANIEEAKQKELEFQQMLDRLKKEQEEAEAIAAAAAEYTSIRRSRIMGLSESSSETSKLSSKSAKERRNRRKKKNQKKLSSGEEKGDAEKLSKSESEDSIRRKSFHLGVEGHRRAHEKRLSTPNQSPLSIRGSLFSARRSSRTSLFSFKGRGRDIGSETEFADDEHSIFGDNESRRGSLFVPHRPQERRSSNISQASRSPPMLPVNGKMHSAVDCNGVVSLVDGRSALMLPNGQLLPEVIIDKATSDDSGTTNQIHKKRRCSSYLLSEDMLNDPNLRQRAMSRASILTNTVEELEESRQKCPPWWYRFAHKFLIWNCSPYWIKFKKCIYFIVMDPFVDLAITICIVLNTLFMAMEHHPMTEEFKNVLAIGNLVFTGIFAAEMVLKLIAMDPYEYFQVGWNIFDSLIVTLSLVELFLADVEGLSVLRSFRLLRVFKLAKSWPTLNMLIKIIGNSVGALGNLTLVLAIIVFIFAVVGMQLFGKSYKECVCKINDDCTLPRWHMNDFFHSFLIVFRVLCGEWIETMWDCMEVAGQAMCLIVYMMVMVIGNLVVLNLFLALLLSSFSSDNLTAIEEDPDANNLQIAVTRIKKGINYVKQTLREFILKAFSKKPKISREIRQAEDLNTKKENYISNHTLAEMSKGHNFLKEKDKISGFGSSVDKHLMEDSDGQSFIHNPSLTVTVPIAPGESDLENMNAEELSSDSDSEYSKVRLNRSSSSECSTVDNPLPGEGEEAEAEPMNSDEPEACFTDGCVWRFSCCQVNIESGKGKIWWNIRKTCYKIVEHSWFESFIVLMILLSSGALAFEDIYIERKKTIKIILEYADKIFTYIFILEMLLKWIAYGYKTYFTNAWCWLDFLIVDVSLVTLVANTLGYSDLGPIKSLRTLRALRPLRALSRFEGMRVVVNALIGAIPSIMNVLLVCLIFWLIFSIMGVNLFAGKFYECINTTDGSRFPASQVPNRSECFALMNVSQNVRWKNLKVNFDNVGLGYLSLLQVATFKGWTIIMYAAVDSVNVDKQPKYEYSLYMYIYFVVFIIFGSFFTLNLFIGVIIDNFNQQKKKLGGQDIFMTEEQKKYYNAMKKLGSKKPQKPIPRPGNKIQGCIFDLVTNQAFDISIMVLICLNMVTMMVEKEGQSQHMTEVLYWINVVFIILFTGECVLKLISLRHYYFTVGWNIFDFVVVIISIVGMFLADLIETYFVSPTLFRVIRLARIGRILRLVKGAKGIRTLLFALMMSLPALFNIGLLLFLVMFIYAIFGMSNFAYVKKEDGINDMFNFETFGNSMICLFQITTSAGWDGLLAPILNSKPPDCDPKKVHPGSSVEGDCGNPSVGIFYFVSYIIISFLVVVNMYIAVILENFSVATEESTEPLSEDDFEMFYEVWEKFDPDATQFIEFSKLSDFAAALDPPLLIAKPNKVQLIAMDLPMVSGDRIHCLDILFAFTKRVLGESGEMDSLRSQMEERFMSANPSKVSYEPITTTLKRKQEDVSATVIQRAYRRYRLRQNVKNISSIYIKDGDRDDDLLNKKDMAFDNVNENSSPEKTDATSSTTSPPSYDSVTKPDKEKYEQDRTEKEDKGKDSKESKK
pIC50: −log10 of the molar value.

Your task in this section: give pIC50 for each listed record.
1. CN1CCn2c(C(F)(F)F)ccc2C12CCN(C(=O)c1ccc(-c3ccccc3)cc1)CC2
2. CN1CCn2c(Cl)ccc2C12CCN(C(=O)c1ccc(-c3ccccc3)cc1)CC2
3. CC(C)c1ccc(C(=O)N2CCC3(CC2)c2ccc(C(=O)C(F)(F)F)n2CCN3C)cc1S(C)(=O)=O
4. CC(C)c1cc(C(=O)N2CCC3(CC2)c2ccc(C(=O)C(F)(F)F)n2CCN3C)ccc1O
5. Cc1cc(S(=O)(=O)C(C)C)ccc1C(=O)N1CCC2(CC1)c1ccc(C(=O)C(F)(F)F)n1CCN2C
6. CN1CCn2c(C(F)(F)F)cc(F)c2C12CCN(C(=O)c1ccc(S(=O)(=O)NC3CC3)cc1)CC2
7. CN1CCn2c(C(=O)C(F)(F)F)ccc2C12CCN(C(=O)c1ccc(C(C)(C)C)cc1)CC2

Result ::
1: < 5.30; 2: < 5.30; 3: 5.30 to 5.70; 4: ≥ 5.70; 5: < 5.30; 6: ≥ 5.70; 7: ≥ 5.70

---

target: human NaV subtype, like NaV 1.7 (Homo sapiens, UniProt Q15858); test: E-VIPR optical membrane potential assay with electrical stimulation; settings: active against one or more sodium channels; Table 3 does not name the assay or NaV subtype; read-out: Binned Activity Data (IC50)
pIC50: −log10 of the molar value.
Please provide measured pIC50 for the entries that follow.

// solved cases for pIC50 follow
COc1ccc(C(=O)N2CCC3(CC2)NC(C)(C)Cn2c(C(=O)C(F)(F)F)ccc23)nc1C = ≥ 5.70
CN1CCn2c(C(F)(F)F)cc(Cl)c2C12CCN(C(=O)c1ccc(CC(C)(C)O)c(F)c1)CC2 = ≥ 5.70
CNS(=O)(=O)c1ccc(C(=O)N2CCC3(CC2)c2ccc(C(F)(F)F)n2CCN3C)cc1 = ≥ 5.70

Your task in this section: give pIC50 for each listed record.
1. COc1ccc(C(=O)N2CCC3(CC2)c2ccc(C(=O)C(F)(F)F)n2C(C)CN3C)nc1C (stereo not shown)
2. CC[C@@H](C)Oc1ccc(C(=O)N2CCC3(CC2)c2ccc(C(C)=O)n2CCN3C)cc1OC
3. CCS(=O)(=O)c1ccc(C(=O)N2CCC3(CC2)c2ccc(C(=O)C(C)(C)C)n2CCN3C)cc1C
4. CC(=O)c1cc2n(c1)CC(C)(C)NC21CCN(C(=O)c2ccc(C3CCCCC3)cc2)CC1

Result ::
1: ≥ 5.70; 2: ≥ 5.70; 3: 5.30 to 5.70; 4: 5.30 to 5.70

---

target: human NaV subtype, like NaV 1.7 (Homo sapiens, UniProt Q15858); assay: E-VIPR optical membrane potential assay with electrical stimulation; settings: active against one or more sodium channels; Table 3 does not name the assay or NaV subtype; read-out: Binned Activity Data (IC50)
pIC50: −log10 of the molar value.
value-type: pIC50

// solved cases for pIC50 follow
CC(C)Oc1ccc(C(=O)N2CCC3(CC2)NC(C)(C)Cn2c(C(F)(F)F)ccc23)cc1F = ≥ 5.70
CCOc1ncccc1C(=O)N1CCC2(CC1)c1ccc(C(F)(F)F)n1CCN2C = ≥ 5.70
COc1cc(C(=O)N2CCC3(CC2)NCC(C)n2c(C(=O)C(F)(F)F)ccc23)ccc1OCCOC(F)(F)F (centres unmarked) = ≥ 5.70
CN1CCn2c(Cl)ccc2C12CCN(C(=O)c1ccc(OCc3ccccc3)cc1)CC2 = 5.30 to 5.70
CN1CCn2c(C(=O)C(F)(F)F)ccc2C12CCN(C(=O)c1ccc(Oc3ccccc3)cc1)CC2 = 5.30 to 5.70
CCNc1ncccc1C(=O)N1CCC2(CC1)c1ccc(C(F)(F)F)n1CCN2C = < 5.30
COc1cc(C(=O)N2CCC3(CC2)c2ccc(C(F)(F)F)n2C(CO)CN3C)ccc1OC(C)C (centres unmarked) = 5.30 to 5.70

Next, consider the following compound.
Value of pIC50 reported for the compound Cc1cc(C(=O)N2CCC3(CC2)c2ccc(C(F)(F)F)n2CCN3C)ccc1S(=O)(=O)NC1CC1 is ≥ 5.70

---

biological target: human NaV subtype, like NaV 1.7 (Homo sapiens, UniProt Q15858); experiment: E-VIPR optical membrane potential assay with electrical stimulation; type: cell-based; conditions: active against one or more sodium channels; Table 3 does not name the assay or NaV subtype; read-out: Binned Activity Data (IC50)
value-type: IC50

// solved cases for IC50 follow
Cc1ccnc2c(C(=O)N3CCC4(CC3)c3ccc(C(F)(F)F)n3CCN4C)cnn12 = 2000 to 5000 nM
Cc1cc(C(=O)N2CCC3(CC2)c2ccc(Cl)n2CCN3C)ccc1C(C)(C)O = ≤ 2000 nM
COc1cc(C(=O)N2CCC3(CC2)c2ccc(C(=O)C(F)(F)F)n2CCN3C)ccc1C(C)(C)C = ≤ 2000 nM

Your task in this section: give IC50 for each listed record.
1. CN1CCn2c(C(=O)C(F)(F)F)ccc2C12CCN(C(=O)c1ccc(-c3ccccc3F)cn1)CC2
2. CC(C)c1ccc(C(=O)N2CCC3(CC2)c2ccc(Cl)n2CCN3C)cc1
3. COc1ccc(C(=O)N2CCC3(CC2)NCC(C)n2c(C(=O)C(F)(F)F)ccc23)cc1C (stereo not shown)
4. COc1ccc(C(=O)N2CCC3(CC2)c2ccc(C(C)=O)n2CCN3C)cc1-c1ccccc1
5. CC(C)Oc1ccc(C(=O)N2CCC3(CC2)c2ccc(C(=O)C(F)(F)F)n2CCN3C)cc1Cl
6. CN1CCn2c(C(F)(F)F)cc(Cl)c2C12CCN(C(=O)c1ccc(C3(O)CCC3)cc1)CC2

Result ::
1: > 5000 nM; 2: > 5000 nM; 3: ≤ 2000 nM; 4: > 5000 nM; 5: ≤ 2000 nM; 6: ≤ 2000 nM

---

biological target: human NaV subtype, like NaV 1.7 (Homo sapiens, UniProt Q15858); assay: E-VIPR optical membrane potential assay with electrical stimulation; details: active against one or more sodium channels; Table 3 does not name the assay or NaV subtype; read-out: Binned Activity Data (IC50)
value-type: IC50

// solved cases for IC50 follow
CC(=O)c1ccc2n1C(C)(C)CN(C)C21CCN(C(=O)c2ccc(OC(C)C)c(C)c2)CC1 = ≤ 2 µM
COc1cc(C(=O)N2CCC3(CC2)c2ccc(CC(F)(F)F)n2CCN3C)ccc1OC(C)C = > 5 µM
Cc1cc(C(=O)N2CCC3(CC2)c2ccc(C(=O)C(F)(F)F)n2CCN3C)ccc1-c1ccnn1C = > 5 µM
CC(=O)c1ccc2n1CCN(C)C21CCN(C(=O)c2ccc(N3CCCCC3)cc2)CC1 = > 5 µM
CC(=O)c1ccc2n1CCN(C)C21CCN(C(=O)c2ccc(OCC3CC3)cc2)CC1 = > 5 µM

Your task in this section: give IC50 for each listed record.
1. CCCCCc1ccc(C(=O)N2CCC3(CC2)c2ccc(C(C)=O)n2CCN3C)cc1
2. Cc1cc(C(=O)N2CCC3(CC2)NC(C)(C)Cn2c(C(=O)C(F)(F)F)ccc23)ccc1O
3. CC1(C)Cn2c(C(=O)C(F)(F)F)ccc2C2(CCN(C(=O)c3ccc(O)c(Cl)c3)CC2)N1

Result ::
≤ 2 µM
≤ 2 µM
≤ 2 µM

---

Please provide measured pIC50 for the entries that follow.
target: human NaV subtype, like NaV 1.7 (Homo sapiens, UniProt Q15858); test: E-VIPR optical membrane potential assay with electrical stimulation; type: cell-based; conditions: active against one or more sodium channels; Table 3 does not name the assay or NaV subtype; read-out: Binned Activity Data (IC50)
pIC50: −log10 of the molar value.

// solved cases for pIC50 follow
CN1CCn2c(C(=O)C3(C)CC3)ccc2C12CCN(C(=O)c1ccc(C(C)(C)O)cc1)CC2 = 5.30 to 5.70
CC(C)S(=O)(=O)c1ccc(C(=O)N2CCC3(CC2)c2ccc(C(=O)C(C)(C)C)n2CCN3C)cc1 = 5.30 to 5.70
CN1CCn2c(C(=O)C(F)(F)F)ccc2C12CCN(C(=O)c1ccc(C(O)COCC(F)(F)F)cc1)CC2 (stereo not shown) = ≥ 5.70
COc1ccc(C(=O)N2CCC3(CC2)c2ccc(C(=O)C4CC4)n2CCN3C)cc1C(F)(F)F = ≥ 5.70
CCOc1cc(C(=O)N2CCC3(CC2)NCCn2c(C(F)(F)F)ccc23)ccc1OC = < 5.30
CC1(C)Cn2c(C(=O)C(F)(F)F)ccc2C2(CCN(C(=O)c3ccc(COCCC(F)(F)F)cc3)CC2)N1 = ≥ 5.70

Next, consider the following compound.
Tested on human NaV subtype, like NaV 1.7 (Homo sapiens, UniProt Q15858), the item CCN(C)c1ccnc2c(C(=O)N3CCC4(CC3)c3ccc(C(F)(F)F)n3CCN4C)cnn12 showed pIC50 equal to ≥ 5.70

Values were extracted from patent US8916565B2.
